Target: human calcitonin receptor (CTR) (Homo sapiens)
Experiment: Calcitonin Receptor (CTR) cAMP Assay
Settings: COS7-human CTR Clone #2 stable cell line, cAMP dynamic 2 kit, 30 min; read-out: Calcitonin Receptor cAMP Stimulation Activity: EC50
Could you please mark Y for values of EC50 below 3 nM and N for values at or above it?

Some solved entries appear below for comparison.
ITEM SMILES: COc1c(F)c(F)cc2c1CC[C@H]2Nc1nc(C)cc2cc(-c3c4c(nc(CCc5ccc(F)cc5)c3-c3n[nH]c(=O)o3)[C@@H]3CCCN3C4=O)sc12
MEASUREMENT TARGET: human calcitonin receptor (CTR) (Homo sapiens)
ANSWER LABEL: Y
--
ITEM SMILES: O=C1c2c(nc(CCc3ccc(F)cc3)c(-c3noc(=O)[nH]3)c2-c2cc3ccnc(NCc4ccc(F)c(Cl)c4)c3s2)[C@@H]2CCCN12
MEASUREMENT TARGET: human calcitonin receptor (CTR) (Homo sapiens)
ANSWER LABEL: N
--
ITEM SMILES: COc1c(Cl)ccc2c1CC[C@H]2Nc1nccc2cc(-c3c4c(nc(CCc5ccc(F)cc5)c3-c3n[nH]c(=O)o3)[C@@H]3CCCN3C4=O)sc12
MEASUREMENT TARGET: human calcitonin receptor (CTR) (Homo sapiens)
ANSWER LABEL: Y
--
ITEM SMILES: COc1c(F)ccc2c1CC[C@H]2Nc1nccc2cc(-c3c4c(nc(CCc5ccc(F)cc5)c3-c3n[nH]c(=O)o3)[C@@H]3CCCN3C4=O)sc12
MEASUREMENT TARGET: human calcitonin receptor (CTR) (Homo sapiens)
ANSWER LABEL: Y
--
ITEM SMILES: COc1cccc2c1CC[C@H]2Nc1nccc2cc(-c3c4c(nc(C(C)C)c3-c3n[nH]c(=O)o3)[C@@H]3CCCN3C4=O)sc12
MEASUREMENT TARGET: human calcitonin receptor (CTR) (Homo sapiens)
ANSWER LABEL: N

Bench note: check whether O=C1c2c(nc(CCc3ccc(F)cc3)c(-c3noc(=O)[nH]3)c2-c2cc3ccnc(OCc4ccc(F)c(F)c4)c3s2)[C@@H]2CCCN12 shows EC50 below 3 nM N

Another: O=C1c2c(nc(CCc3ccc(F)cc3)c(-c3n[nH]c(=O)o3)c2-c2ccc3c(c2)oc(=O)n3Cc2ccc(F)cn2)[C@@H]2CCCN12 N

Further, for COc1cccc2c1CC[C@H]2NC(=O)c1ccc(-c2c3c(nc(CCc4ccc(F)cc4)c2-c2noc(=O)[nH]2)[C@@H]2CCCN2C3=O)s1 ? Y

Also check O=C1c2c(nc(CCc3ccc(F)cc3)c(-c3noc(=O)[nH]3)c2-c2ccc3c(c2)CC[C@H]3OCc2ccc(F)c(F)c2)[C@@H]2CCCN12 N

Query O=C1c2c(nc(CCc3ccc(F)cc3)c(-c3n[nH]c(=O)o3)c2-c2ccc3c(Cc4ccc(F)cn4)noc3c2)[C@@H]2CCCN12 next N

And then O=C1c2c(nc(CCc3ccc(F)cc3)c(-c3n[nH]c(=O)o3)c2-c2cc3ccnc(N[C@@H]4CCc5c(F)cc(F)cc54)c3s2)[C@@H]2CCCN12 , what is it? Y

* * *

Biological target: COS-7/AMY3 (human calcitonin receptor (CTR) and RAMP3) (Homo sapiens, UniProt O60896+P30988)
Construct: expressed in transfected cells; host or cells: COS-7
Assay: Amylin Receptor cAMP Assay II
Type: cell-based
Details: values marked **: Amylin Receptor cAMP Assay II; COS-7/AMY3 cells, cAMP dynamic 2 kit, 30 min; read-out: Amylin Receptor cAMP Stimulation Activity: EC50
pEC50: −log10 of the molar value.
Respond with Yes for pEC50 values of 7 and above, No for values below.

Examples from the recorded data:
MOLECULE: N#Cc1ccc(Cn2ccc3cc(-c4c(-c5n[nH]c(=O)o5)c(CCc5ccc(F)cc5)nc5c4c(=O)n4n5CCC4)cnc32)cc1F
ANSWER LABEL: Yes
--
MOLECULE: COc1c(F)ccc2c1C[C@@H](F)[C@H]2Nc1nccc2cc(-c3c4c(nc(CCc5ccc(F)cc5)c3-c3n[nH]c(=O)o3)[C@@H]3CCCN3C4=O)sc12
ANSWER LABEL: Yes

Does pEC50 meet or surpass 7 for CC(C)C1CS(=O)(=O)c2c1nc(CCC1CCOCC1)c(-c1cc(=O)[nH]o1)c2-c1cc2ccnc(N[C@@H]3CCc4ncccc43)c2s1 (stereo partly drawn) ? No

* * *

Target: human calcitonin receptor (CTR) (Homo sapiens, UniProt P30988)
Test: Calcitonin Receptor (CTR) cAMP Assay
Details: COS7-human CTR Clone #2 stable cell line, cAMP dynamic 2 kit, 30 min; read-out: Calcitonin Receptor cAMP Stimulation Activity: EC50
pEC50: −log10 of the molar value.
Grouping rule (pEC50): bin 1: < 9; bin 2: ≥ 9 and < 10; bin 3: ≥ 10

Example cases with answers are listed next.
COMPOUND: COc1c(F)ccc2c1CC[C@H]2Nc1nccc2cc(-c3c4c(nc(CCc5ccc(F)cc5)c3-c3n[nH]c(=O)o3)C35CC(CN3C4=O)C5)sc12
ANSWER LABEL: bin 3
--
COMPOUND: CN(Cc1ccc(F)c(F)c1)c1nccc2cc(-c3c4c(nc(CCc5ccc(F)cc5)c3-c3noc(=O)[nH]3)[C@@H]3CCCN3C4=O)sc12
ANSWER LABEL: bin 1
--
COMPOUND: COc1c(Cl)cc2c(c1F)CC[C@H]2Nc1nccc2cc(-c3c4c(nc(CCc5ccc(F)cc5)c3-c3n[nH]c(=O)o3)[C@@H]3CCCN3C4=O)sc12
ANSWER LABEL: bin 2
--
COMPOUND: CC(C)C1CS(=O)(=O)c2c1nc(CCC1CCOCC1)c(-c1n[nH]c(=O)o1)c2-c1cnc2c(ccn2Cc2ccc(C#N)c(F)c2)c1 (stereo not shown)
ANSWER LABEL: bin 1
--
COMPOUND: COc1cccc2c1CC[C@H]2Nc1nc(C(F)(F)F)cc2cc(-c3c4c(nc(CCc5ccc(F)cc5)c3-c3n[nH]c(=O)o3)[C@@H]3CCCN3C4=O)sc12
ANSWER LABEL: bin 2

Could you place O=C1c2c(nc(CCc3ccc(F)cc3)c(-c3n[nH]c(=O)o3)c2-c2cc3ccnc(N[C@@H]4CCc5c4ccc(F)c5Cl)c3s2)[C@@H]2CCCN12 in its proper category? Many thanks. bin 2

Can you handle Cc1cc2cc(-c3c4c(nc(CCc5ccc(F)cc5)c3-c3n[nH]c(=O)o3)C35CC(CN3C4=O)C5)sc2c(N[C@@H]2CCOc3c(F)cc(F)cc32)n1 next? bin 3

Proceed to CC(C)C1CS(=O)(=O)c2c1nc(CCC1CCOCC1)c(-c1cc(=O)[nH]o1)c2-c1ccc2c(ccn2Cc2ccc(C#N)c(F)c2)c1 (stereo not shown) bin 1

Again, but for COc1c(F)ccc2c1C[C@@H](F)[C@H]2Nc1nc(C)cc2cc(-c3c4c(nc(CCc5ccc(F)cc5)c3-c3n[nH]c(=O)o3)C35CC(CN3C4=O)C5)sc12 bin 3

Please give the result for COc1cccc2c1CC[C@H]2Nc1nc(C)cc2cc(-c3c4c(nc(CCc5ccc(F)cc5)c3-c3n[nH]c(=O)o3)[C@@H]3CCCN3C4=O)sc12 too. bin 2

Try this compound next: O=C1c2c(nc(CCc3ccc(F)cc3)c(-c3n[nH]c(=O)o3)c2-c2cnc3c(ccn3Cc3ncc(F)cc3F)c2)[C@@H]2CCCN12 bin 1

Now this one: COc1cccc2c1CC[C@H]2Nc1cc(C(F)(F)F)cn2cc(-c3c4c(nc(CCc5ccc(F)cc5)c3-c3n[nH]c(=O)o3)[C@@H]3CCCN3C4=O)nc12 bin 1

* * *

Biological target: UniProtKB P30988
Sequence (P30988 25-474): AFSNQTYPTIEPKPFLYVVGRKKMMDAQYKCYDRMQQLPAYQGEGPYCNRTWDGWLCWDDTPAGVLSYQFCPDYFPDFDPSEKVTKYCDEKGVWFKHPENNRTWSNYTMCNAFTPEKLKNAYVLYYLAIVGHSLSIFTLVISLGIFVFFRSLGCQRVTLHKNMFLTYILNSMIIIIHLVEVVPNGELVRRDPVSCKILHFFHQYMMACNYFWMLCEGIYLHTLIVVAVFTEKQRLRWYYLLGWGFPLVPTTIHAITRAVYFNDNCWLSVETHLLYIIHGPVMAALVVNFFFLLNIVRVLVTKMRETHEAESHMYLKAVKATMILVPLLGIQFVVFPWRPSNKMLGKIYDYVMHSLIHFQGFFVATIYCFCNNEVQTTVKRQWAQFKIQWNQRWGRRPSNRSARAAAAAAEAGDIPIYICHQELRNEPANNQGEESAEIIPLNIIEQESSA
Test: Calcitonin Receptor (CTR) cAMP Assay
Settings: COS7-human CTR Clone #2 stable cell line, cAMP dynamic 2 kit, 30 min; read-out: Calcitonin Receptor cAMP Stimulation Activity: EC50
MEASURED ENDPOINT: EC50 (nM)
Number in nM, nothing else.

What EC50 value was documented for this molecule, COc1c(Cl)cc2c(c1F)CC[C@H]2Nc1nccc2cc(-c3c4c(nc(CCc5ccc(F)cc5)c3-c3n[nH]c(=O)o3)C35CC(CN3C4=O)C5)sc12 ? 0.0645
